All values here come from the NIST ThermoML archive (doi:10.1021/je060247x).

details: 373.15 K; 5000 kPa; Liquid
Property: mass density; scope: individual compounds
measurement_type: mass density (kg/m3)

| compound | measurement_type | observed_value |
| --- | --- | --- |
| CCCCCCCC[n+]1ccn(C)c1.F[B-](F)(F)F [1-methyl-3-octylimidazolium tetrafluoroborate] | mass density | 1055.5 |
| CCCCn1cc[n+](C)c1.O=S(=O)([O-])C(F)(F)F [1-butyl-3-methylimidazolium trifluoromethanesulfonate] | mass density | 1243.2 |
| CCCCn1cc[n+](C)c1C.F[P-](F)(F)(F)(F)F [1-butyl-2,3-dimethylimidazolium hexafluorophosphate] | mass density | 1293.8 |
| CCCCCCn1cc[n+](C)c1.F[P-](F)(F)(F)(F)F [1-hexyl-3-methylimidazolium hexafluorophosphate] | mass density | 1237 |
| CCCCn1cc[n+](C)c1.F[B-](F)(F)F [1-butyl-3-methylimidazolium tetrafluoroborate] | mass density | 1151 |
| CCCCCCCC[n+]1ccn(C)c1.F[P-](F)(F)(F)(F)F [1-octyl-3-methylimidazolium hexafluorophosphate] | mass density | 1182.7 |
